target-system: HLA-B*53:01
experiment-description: IEDB peptide-MHC binding, purified MHC/competitive/radioactivity; filed as Kd, often an IC50 or EC50 that approximates it; bounds were set here for any values at or beyond the usual limits of such assays
condition-parameters: source organism: Dengue virus 4 Dominica/814669/1981
pKd: −log10 of the molar value.
readout-name: pKd

>>> print(df.to_string())
   polymer_sequence  reported_measurement
0         IPHDLMELI                  8.19

----------
target-system: HLA-B*40:01
experiment-description: IEDB peptide-MHC binding, purified MHC/direct/fluorescence; filed as Kd, often an IC50 or EC50 that approximates it; bounds were set here for any values at or beyond the usual limits of such assays
condition-parameters: source organism: Influenza A virus (A/SW/MN/3227/00(H1N2))
pKd: −log10 of the molar value.
readout-name: pKd

>>> df
   polymer_sequence  target_system  reported_measurement
0         LEESHPGIF    HLA-B*40:01                  7.07
